- Target under test: MCT4 (Homo sapiens (Human), UniProt O15427)
- Sequence (O15427 whole entry, looked up): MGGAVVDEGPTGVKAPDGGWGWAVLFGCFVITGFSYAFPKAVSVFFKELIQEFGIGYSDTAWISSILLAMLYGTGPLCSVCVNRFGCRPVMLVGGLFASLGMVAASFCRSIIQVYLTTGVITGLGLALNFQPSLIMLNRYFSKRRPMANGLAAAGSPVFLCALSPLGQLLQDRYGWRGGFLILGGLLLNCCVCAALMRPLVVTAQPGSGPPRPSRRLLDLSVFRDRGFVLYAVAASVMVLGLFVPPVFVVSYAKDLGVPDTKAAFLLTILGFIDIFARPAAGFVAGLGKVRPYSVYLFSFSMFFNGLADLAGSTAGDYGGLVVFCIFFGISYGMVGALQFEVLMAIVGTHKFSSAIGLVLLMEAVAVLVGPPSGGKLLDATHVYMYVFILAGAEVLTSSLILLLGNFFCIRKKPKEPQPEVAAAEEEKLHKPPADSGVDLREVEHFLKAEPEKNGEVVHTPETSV
- Sequence (P35613 whole entry partner, looked up): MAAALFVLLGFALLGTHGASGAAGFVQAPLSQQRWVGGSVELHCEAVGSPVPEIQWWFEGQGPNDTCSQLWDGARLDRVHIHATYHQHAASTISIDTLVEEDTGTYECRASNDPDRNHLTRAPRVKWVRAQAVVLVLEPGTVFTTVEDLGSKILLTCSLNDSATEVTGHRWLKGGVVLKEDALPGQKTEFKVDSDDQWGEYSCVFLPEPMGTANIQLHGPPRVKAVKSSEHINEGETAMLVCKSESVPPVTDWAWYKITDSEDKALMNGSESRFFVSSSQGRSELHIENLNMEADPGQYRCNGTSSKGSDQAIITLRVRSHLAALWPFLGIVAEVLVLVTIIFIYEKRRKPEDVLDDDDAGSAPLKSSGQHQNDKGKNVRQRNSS
- Experiment: Assay 3: MCT4-mediated lactate transport in MDA-MB-231 breast cancer cells
- Assay type: cell-based
- Applied conditions: MDA-MB-231 cells; lactate transport
Readout: IC50 (nM)

INSERT INTO assay_data (molecule, readout, value_reported) VALUES
  ('CC(C)COc1cccc(-c2cc(COC(C)(C)C(=O)O)nn2Cc2ccc(N(C)C)cc2)c1', 'IC50', 170),
  ('CCOc1ccccc1Cn1nc(COC(C)(C)C(=O)O)cc1-c1cccc(OC2CCC2)c1', 'IC50', 2.4);

(P) CC[C@@](C)(OCc1cc(-c2cccc(OC)c2)n(Cc2ccccc2Cl)n1)C(=O)O [Example 121]
(Q) CCn1ncc2ccc(-c3cc(CO[C@](C)(CC)C(=O)O)nn3-c3ccccc3N3CCC3)cc21
(R) CC(C)(C)COc1cccc(-c2cc(COC(C)(C)C(=O)O)nn2-c2ccccc2N2CCC2)c1
Arrange these molecules by their IC50, starting with the largest number. List the labels according to the requested ordering. P, Q, R

====

- Experiment: Adjuvant-induced arthritis model in rat: Mechanical Allodynia test (MA, Von Frey)
- Format: in vivo
- Applied conditions: SD rat, CFA-induced arthritis; PO 3 days post CFA; compared to Dexamethasone
Readout: Mechanical Allodynia (Von Frey), Minimal Efficacious Dose (mg/kg)
Just the number in mg/kg, nothing appended.

Study these solved cases before continuing.
INSERT INTO results (smiles_text, unit_descriptor, value_reported) VALUES
  ('CC(C)COc1cccc(-c2cc(COC(C)(C)C(=O)O)nn2-c2cccc3cnn(C)c23)c1', 'mg/kg', 3),
  ('CCOc1ccccc1Cn1nc(CO[C@](C)(CC)C(=O)O)cc1-c1cc(OC)cc(OC)c1', 'mg/kg', 1),
  ('CCn1ncc2ccc(-c3cc(CO[C@](C)(CC)C(=O)O)nn3Cc3ccccc3Cl)cc21', 'mg/kg', 3);

For the molecule COc1cccc(-c2cc(COC(C)(C)C(=O)O)nn2Cc2ccccc2Cl)c1 , report Mechanical Allodynia (Von Frey), Minimal Efficacious Dose. 30

====

- Target under test: MCT1 (Homo sapiens (Human), UniProt P53985)
- Sequence (P53985 whole entry, one chain of several): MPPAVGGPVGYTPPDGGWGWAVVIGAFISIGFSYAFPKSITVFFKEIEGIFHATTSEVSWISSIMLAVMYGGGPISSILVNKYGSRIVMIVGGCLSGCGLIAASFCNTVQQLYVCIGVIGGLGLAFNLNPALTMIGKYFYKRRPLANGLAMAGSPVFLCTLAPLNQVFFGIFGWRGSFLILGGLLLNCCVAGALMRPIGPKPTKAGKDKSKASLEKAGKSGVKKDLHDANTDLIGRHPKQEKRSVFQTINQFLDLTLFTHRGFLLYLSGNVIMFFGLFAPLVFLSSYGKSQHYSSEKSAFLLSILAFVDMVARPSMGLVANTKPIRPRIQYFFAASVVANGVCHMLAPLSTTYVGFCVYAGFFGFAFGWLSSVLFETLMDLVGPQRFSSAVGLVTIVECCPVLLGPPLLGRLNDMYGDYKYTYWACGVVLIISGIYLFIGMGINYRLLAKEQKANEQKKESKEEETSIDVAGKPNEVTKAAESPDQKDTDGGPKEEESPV
- Experiment: Assay 4: MCT1-mediated lactate transport in BT20 breast cancer cells
- Format: cell-based
- Applied conditions: Table 27
Readout: IC50

INSERT INTO assay_data (smiles_text, value_reported) VALUES
  ('COc1cccc(-c2cc(COC(C)(C)C(=O)O)nn2-c2ccccc2F)c1', '> 100000 nM');

Give the reported value of IC50 for this record: CC(C)Oc1ncc(-c2cc(COC(C)(C)C(=O)O)nn2Cc2ccccc2Cl)s1 > 33000 nM

Supply recorded IC50 for CCOc1ccccc1-n1nc(COC(C)(C)C(=O)O)cc1-c1cc(OC)cc(OC)c1 here. > 100000 nM

For the compound COc1cc(OC)cc(-c2cc(COC(C)(C)C(=O)O)nn2-c2cccc3cnn(C)c23)c1 , give its reported IC50. > 100000 nM

====

- Experiment: Pharmacokinetic assay in rat (IV 3 mg/kg, PO 10 mg/kg)
- Assay type: in vivo
- Applied conditions: Male Sprague-Dawley rat, oral bioavailability, PO 10 mg/kg
Readout: Rat F (%)

Here are 6 molecules together with their reported answers.
INSERT INTO results (smiles_text, readout, value_reported) VALUES
  ('CC(C)(OCc1cc(-c2cccc(OC3CCC3)c2)n(-c2ccccc2Cl)n1)C(=O)O', 'Rat F', 48),
  ('CCn1ncc2ccc(-c3cc(COC(C)(C)C(=O)O)nn3Cc3ccccc3Cl)cc21', 'Rat F', 43),
  ('CCn1ncc2ccc(-c3cc(CO[C@@](C)(CC)C(=O)O)nn3Cc3ccccc3Cl)cc21', 'Rat F', 76),
  ('COc1cc(OC)cc(-c2cc(COC(C)(C)C(=O)O)nn2-c2ccccc2Cl)c1', 'Rat F', 76),
  ('CCCn1ncc2ccc(-c3cc(COC(C)(C)C(=O)O)nn3-c3ccccc3N3CCC3)cc21', 'Rat F', 52),
  ('Cn1ncc2cccc(-n3nc(COC(C)(C)C(=O)O)cc3-c3cccc(OC4CC4)c3)c21', 'Rat F', 97);

(I) CCOc1cc(OCC)cc(-c2cc(COC(C)(C)C(=O)O)nn2-c2ccccc2Cl)c1
(II) Cn1ncc2cccc(-n3nc(COC(C)(C)C(=O)O)cc3-c3cccc(OCC(C)(C)C)c3)c21
Lower value of Rat F belongs to which: I or II ? Could you answer with the label of the item you picked? I
(I: 49%, II: 72%)
